src = the nanobody polyreactivity screen of Harvey et al. (2022)

assay.procedure: yeast display, Sf9 membrane polyspecificity reagent, FACS + sequencing; frameworks hold sequencing errors
quantity.measured: polyreactivity (PSR sort gate)

Consider the reported polyreactivity (PSR sort gate) for these sequences:
sequence.entry: QVHLVESGGGLVQAGGSLRLSCAASGSIYHNAMGWYRQAPGKERELVAAITSSGGRTYYADSVKGRFTISRDNAKNTVYLQMNSLKPEDTAVYYCNALAHQYHRYEFGYWGQGTQVTVSS
polyreactivity (PSR sort gate): low polyreactivity
//
sequence.entry: QVHLVESGGGLVQAGGSLRLSCAASGSIFFVYAMGWYRQAPGKERELVAAISNDGSTNYADSVKGRFTISRDNAKNTVYLQMNSLKPEDTAVYYCAADPSLRQYAYFDYDYWGQGTQVTVSS
polyreactivity (PSR sort gate): low polyreactivity
//
sequence.entry: QVHLVESGGGLVQAGGSLRLSSAPSGSTFDAYDMGWYRQAPGKESELVAAITSGGSTNYADSVKGRFTISRDNAKNTVYLQMNSLKPEDTAVYYCAASPYRGFVSRYGYWGQGTQVTLSS
polyreactivity (PSR sort gate): low polyreactivity
//
sequence.entry: QVQLVESGGGLVQAGGSLRLSCAASGFIFGSYAMGWYRQAPGKERELVAAISYRGGTTYYADSVKGRFTISRDNAKNTVYLQMNSLKPEDTAVYYCAADSPENRYNYWGQGTQVTLSS
polyreactivity (PSR sort gate): high polyreactivity
//
sequence.entry: QVQLVESGGGLVQAGCSLRLTCAASGSIFRTNAMGWSRQAPGKERELVAAITGSGGSTYYADSVKGRFTISRDNAKNTVYLQMNSLKPEDTAVYYCAAEFGSFVSPYNYYFWGLGTQVTVSS
polyreactivity (PSR sort gate): low polyreactivity

[Q] Quick one: polyreactivity (PSR sort gate) for `QVQLVESGGGLVQAGGSLRLSCAASGYTFVWYAMGWYRQAPGKERELVAAISASGGSTYYADSVKGRFTISRDNAKNTVYLQMNSLKPEDTAVYYCNAVGALSVYGGNGYWGQGTQVTVSS` ?
[A] high polyreactivity

[Q] // same read-out, input: `QVKLVESGGCLVQAGCSLSLSCAASGRTFVTYAMGWYRQAPGKEREFVAAISWSGVSTYYADSVKGRFTISRDNAKNTVYLQMNSLKPEDTAVYYCAAKRVRALYGGSEGGYWGQGTQVTVSS`
[A] low polyreactivity

[Q] Subsequent entry: `QVQLVESGGGLVQAGGSLRLSCAASGFTFRRYAMGWYRQAPGKETELVAVITTAGSTNYADSVKGRFTISRDNAKNTVHLQMNSLIPEDTAVYYCATDNGTRKRRYDYWGQGTQVTVSS`
[A] low polyreactivity

[Q] Now the sequence `QVQLVESGAGLVQAGGSLRLSCAASGSIFYYYAMGWYRQAPGKEREFVAAIRESGGSTYYADSVKGRFTISRDNAKNTVYLQMNSLKPEDTAVYYCAVRRPRRNYNYPYDYWGLGTQVTVSS`
[A] low polyreactivity

[Q] Record: `QVQLVESGGGLVQAGGSLRLSCAASGITFGLYAMGWYRQAPGKERELVAAITWRGGSTYYADSVKGRFTISRDNAKNTVYLQMNSLKPEDTAVYYCAADFSGYSDDYWGQGTQVTVSS`
[A] high polyreactivity

[Q] Also `QVQLVESGGGLVQAGGSLRLSCAASGRTFDHNAMGWYRQAPGKERELVAAINSSGGRTYYADSVKGRFTISRDNAQNTVYLQMNSLQPEDTAVYYCATVNVRGPPYDYWGQGTQVTVSS` , if possible.
[A] high polyreactivity

[Q] Request: `QVQLVESGGGVVQAGGSIRLSCAASGRIFTSNAMGWNRQAPGKETELDAAISGSGGRTYYADSVKGRFTISRDNAKNTVYLQMNSLKPEDTAVYDCNARYYTSGIAYSYYYWGQGTQGTVSS`
[A] high polyreactivity

[Q] What would you report for `QVQLVESGGGLVQAGGSLRLSCAASGLIFYINAMGWYRQAPGKERELVASITRTGSTNYADSVKGRFTISRDNAKNTVYLQMNSLKAEDTAVYYCAAYGPVYPHEYDYWGQGTQVTVSS` ?
[A] low polyreactivity

[Q] `HVELVEAGGGVVQAGGSLRLSCAASGRIFRYYVMGWYRPAPGKEREFVASISGRGASTYYADSVKGRFTISRDNAKNTVYIKRNSLKPEDTAVYYCNADVWLLSYVPEYDYWGQGTQVTVSS` ?
[A] low polyreactivity

[Q] What about `QVQLVESGGGLVQAGGSLRLSCAASGSIFHFYAMGWYRQAPGKERELVAAITSGTSTYYADSVKGRFTISRDNAKNTVYLQMNSLKPEDTAVYYCAAEASHYYYNAYPSYGGSDYWGQGTQVTVSS` ?
[A] low polyreactivity

[Q] Then this sequence: `QVQLVESGGGLVQAGGSLRLSCAASGLIFTPYAMGWYRQAPGKERELVAAINYGGSRTYYADSVKGRFTISRDNAKNTVYLQMNSLKPEDTAVYYCNVVKRSFRYDYWGEGTQVTVSS`
[A] high polyreactivity

[Q] Same for `QVQLVESGGRLVQAGGSIRLRCAASGNTFVYNDMGWYRQAPGKERELVADIRYSGSTYYADSVKGRFTISRDNATNTVYLEMNSLKPEDTAVYYCAKAYYVLSWMGYWGQGTQVTVSS`
[A] low polyreactivity
